Experiment: Log P by reversed-phase HPLC (C 18), acidic range
Type: physicochemical
Details: reversed-phase HPLC column (C 18); given in the preparation examples, acidic or neutral range not given
Procedure: Log P values given in the tables were determined in accordance with EEC Directive 79/831 Annex V.A8 by HPLC (High Performance Liquid Chromatography) using a reversed-phase column (C 18). Temperature: 43° C. (a) Mobile phases for the determination in the acidic range: 0.1% aqueous phosphoric acid, acetonitrile; linear gradient from 10% acetonitrile to 90% acetonitrile—the corresponding measurement results in Tables 1 and 2 are labelled^a).
// boundary case: chromatographic logP equal to 2 maps to label 0; strictly smaller maps to label 1

Completed entries (count: 4):
Problem: In plain terms, does `O=C(O)c1ccc(Cl)c(OCCCl)c1Cl` come in under 2 for chromatographic logP?
Solution: label 0

Problem: I wonder whether `CCn1ncc(C(=O)c2ccc(Cl)c(OCCNC(C)=O)c2Cl)c1O` has chromatographic logP below 2. Can you tell?
Solution: label 1

Problem: Dear colleague, could you confirm whether chromatographic logP of `CCn1ncc(C(=O)c2ccc(Cl)c(OCCCl)c2Cl)c1O` falls below 2? Thanks.
Solution: label 0

Problem: Does the reported chromatographic logP of the following compound sit strictly below 2? `CCn1ncc(C(=O)c2ccc(Cl)c(OCCN)c2Cl)c1O`
Solution: label 1

Turning now to a further compound:
Problem: Dear reviewer, please state whether `CCn1ncc(C(=O)c2ccc(Cl)c(OCCNC(=S)NC)c2Cl)c1O` has chromatographic logP strictly beneath 2.
Solution: label 1

Entry source: patent US7456133B2
